# Test system: HCC-2998 colon
# method_description: NCI tumour cell line growth inhibition, 48 h
readout_label: TGI

[[record]]
compound = "O=C(c1ccccc1)c1ccc2nc3n(c2c1)C(c1c(F)cccc1F)SC3 (stereo not drawn)"
readout_label = "TGI"
measured = "> 52.5 µM"

[[record]]
compound = "O=C(/C=C/c1ccc(F)cc1)c1ccc(Cl)cc1Cl"
readout_label = "TGI"
measured = "> 100 µM"


Ask | Form field: reported TGI of COc1ccc(Nc2nnc(CCCCCCCCc3nnc(Nc4ccc(OC)cc4)o3)o2)cc1
Reply | > 100 µM

* * *

# Tested on: HCT-15 colon
# method_description: NCI tumour cell line growth inhibition, 48 h
Assignment: determine reported TGI for the given molecules.
One number for each entry, in µM.

[[record]]
molecule = "COc1cc(S(=O)(=O)Nc2nc(-c3ccc(N4C(=O)CSC4c4cccs4)cc3)cs2)ccc1Cl (stereo unspecified)"
subject_of_test = "HCT-15 colon"
unit_of_measurement = "µM"
measured = 46.7

[[record]]
molecule = "COC1CC(C)C(OC)C2=CC(=O)C=C(NC(=O)/C(C)=C/C=C\\C(C)C(OC(N)=O)/C(C)=C\\C(C)C1OC)C2=O (stereo unspecified)"
subject_of_test = "HCT-15 colon"
unit_of_measurement = "µM"
measured = 3.31

[[record]]
molecule = "Cn1c([N+](=O)[O-])cnc1/C=C1\\Oc2ccccc2C1=O"
subject_of_test = "HCT-15 colon"
unit_of_measurement = "µM"
measured = 0.675


Below are some molecules; for each one, tell me its TGI.
1. O=C(O[C@H]1CN[C@H](C#Cc2cc3ncnc(Nc4ccc5c(ccn5Cc5cc(F)ccc5F)c4)c3s2)C1)N1CCOCC1
2. CCCCCCCCCCCCCCCCCCNc1ccn(C2OC(COP(=O)(O)OC3CC(n4cc(F)c(=O)[nH]c4=O)OC3COP(=O)(O)OCC3OC(n4ccc(N)nc4=O)C(O)C3O)C(O)C2O)c(=O)n1 (stereo unspecified)

Reply |
[17.5, 41.4]

* * *

# Tested on: KM12 colon
# method_description: NCI tumour cell line growth inhibition, 48 h
readout_label: GI50

[[record]]
molecule = "COc1cc2c(cc1OCCCOc1cc3c(cc1OC)C(=O)N1C[C@H](F)C[C@H]1C=N3)N=C[C@@H]1C[C@@H](F)CN1C2=O"
measured = "12.7 µM"

[[record]]
molecule = "C=CCC(N[C@H](CO)c1ccccc1)c1ccc2ccccc2n1 (some centres undefined)"
measured = "> 100 µM"


Below are some molecules; for each one, tell me its GI50.
1. CSc1ccc(C2=NN(C(=O)c3ccc(F)cc3)C(c3ccc(F)cc3)C2)cc1 (centres undefined)
2. CC[C@H](NC(=O)[C@H](C)NC)C(=O)N1C[C@@H](O)C[C@H]1Cc1c(-c2[nH]c3cc(F)ccc3c2C[C@@H]2C[C@H](O)CN2C(=O)[C@H](CC)NC(=O)[C@H](C)NC)[nH]c2cc(F)ccc12
3. O=c1c2cc(Cl)ccc2oc2ccc(OCCCCCN3CCCCC3)cc12
4. ClCc1cccc(Cn2cnc3c(NC45CC6CC(CC(C6)C4)C5)ncnc32)c1
5. CCN(CC)CCCC(C)Nc1c2ccc(Cl)cc2nc2ccc(OC)cc12 (centres undefined)
6. O=C1Nc2ccc(C(=O)c3ccco3)cc2/C1=C/c1cc(Cl)c(O)c(Cl)c1
7. COc1ccc(/C=N\NC(=O)CN2CCN(c3cc4c(cc3F)c(=O)c(C(=O)N/N=C/c3ccc(OC)c(OC)c3)cn4C3CC3)CC2)cc1OC

Reply |
["2.2 µM", "> 100 µM", "2.68 µM", "14.6 µM", "2.39 µM", "3.62 µM", "3.42 µM"]

* * *

Assignment: determine reported TGI for the given compounds.
# System: HT29 colon
# method_description: NCI tumour cell line growth inhibition, 48 h
Where a SMILES comes first, the peptide text is derived from it. [ ]: non-standard residue; d: D form. Ac5c = NC1(C(=O)O)CCCC1

These recorded examples may help you get a feel for the data.
[[record]]
compound = "O=c1[nH]n(Cc2ccccc2Cl)c2ccc([N+](=O)[O-])cc12"
measured = "> 100 µM"

[[record]]
compound = "NC1(C(=O)NC2(C(=O)O)CCCC2)CCCC1 (H-[Ac5c]-[Ac5c]-OH)"
measured = "> 100 µM"

[[record]]
compound = "COCC(N=CN1CCCc2ccccc2[C@@H]1CCCCl)C(C)(C)C (some centres not stated)"
measured = "69.7 µM"

[[record]]
compound = "CCOC(=O)c1cc(C#N)c(=O)n(/N=C(\\C)c2ccncc2)c1O"
measured = "> 100 µM"

[[record]]
compound = "COc1ccc2cc(CNCCCCCCCCCCCCNCc3ccc4cc(OC)ccc4c3)ccc2c1"
measured = "23 µM"

[[record]]
compound = "COC(=O)c1cc2c(o1)Sc1ccccc1NC2=O"
measured = "> 100 µM"

[[record]]
compound = "CSc1ccc(C2=NN(C(=O)c3ccc(F)cc3)C(c3ccc(F)cc3)C2)cc1 (configuration not stated)"
measured = "15.8 µM"

[[record]]
compound = "COc1ccc(/C=C2\\CCC(CNc3cc(C)on3)C2=O)cc1 (configuration not stated)"
measured = "> 100 µM"

[[record]]
compound = "OC1(CCc2ccccc2)COC(C(F)(F)F)(C(F)(F)F)C1 (configuration not stated)"
measured = "> 100 µM"

[[record]]
compound = "CCOC(=O)C(Cl)(NC(=O)NC(Cl)(C(=O)OCC)C(F)(F)F)C(F)(F)F (configuration not stated)"
measured = "> 100 µM"


Below are some compounds; for each one, tell me its TGI.
1. COc1cc(Cl)c2c3c(c(C(C)=O)oc13)CCC2
2. O=c1[nH]c(C23CC4CC(CC(C4)C2)C3)cc2c1c(=O)oc1ccccc12
3. CCNC(=O)CCN(C(=O)O)S(=O)(=O)c1ccc(NC(=O)c2ccccc2)cc1

Reply |
["> 100 µM", "15.7 µM", "> 100 µM"]

Below are some compounds; for each one, tell me its TGI.
1. O=C1CC(=O)NC(=NN2C(=O)/C(=C/C(=O)c3ccco3)N=C2c2ccccc2)N1
2. Cc1cc(C)nc(NS(=O)(=O)c2ccc(NNc3c4ccccc4nc4c(C(=O)Nc5ccc(S(=O)(=O)Nc6ncccn6)cc5)cccc34)cc2)n1
3. O=[n+]1c2ccccc2n([O-])c2ccccc21
4. Cc1oc2c(c1C)S(=O)(=O)C(C#N)C(c1ccccc1)N2 (configuration not stated)
5. Nc1nc(Cl)c(N)c(NCC2(CO)CCC2)n1
6. O=C1C(=O)c2c(oc(=O)c3ccccc23)-c2ccccc21
7. Cc1ccc2c(c1)C(=O)/C(=N/Nc1ccc(Cl)cc1)CCO2

Reply |
["> 100 µM", "77.4 µM", "> 100 µM", "> 100 µM", "> 100 µM", "> 25 µM", "> 100 µM"]

* * *

# System: HCT-15 colon
# method_description: NCI tumour cell line growth inhibition, 48 h
Assignment: determine reported TGI for the given compounds.

Below are some compounds; for each one, tell me its TGI.
1. COc1cc(Cl)c2c3c(c(C(C)=O)oc13)CCC2
2. COc1cc(C2SCC(=O)N2c2ccccc2Cl)cc(OC)c1OC (stereo unspecified)
3. CCC(Sc1cc(Cl)c(C)cc1S(=O)(=O)Nc1nc(N)nc(N(C)C)n1)C(=O)O (stereo unspecified)
4. CC[C@@H]1OC2(C)CC(S(=O)(=O)c3ccccc3O)CC1O2 (stereo partly specified)

Reply |
1. > 100 µM
2. > 100 µM
3. > 10 µM
4. > 100 µM

Below are some compounds; for each one, tell me its TGI.
1. O=C1NC(=O)C(Cc2ccccc2)(c2cccnc2)N1 (stereo unspecified)
2. CC(=O)OCC1OC(N2C(=O)C(=O)c3cc(C)ccc32)C(OC(C)=O)C(OC(C)=O)C1OC(C)=O (stereo unspecified)

Reply |
["> 100 µM", "> 100 µM"]

* * *

Assignment: determine reported TGI for the given compounds.
# System: A549 NSCLC
# method_description: NCI tumour cell line growth inhibition, 48 h

[[record]]
compound = "COc1cc(/C=C/C(=O)CC(=O)/C=C/c2cc(OC)c(OC)c(OC)c2)cc(OC)c1OC"
subject_of_test = "A549 NSCLC"
readout_label = "TGI"
measured = "> 100 µM"


Below are some compounds; for each one, tell me its TGI.
1. COc1c2nc(CCl)[nH]c(=O)c2c(OC)c2nc(CCl)[nH]c(=O)c12
2. C=CC1(C(=O)O)CCC(C(C)(C)C)CC1 (stereo not given)
3. O=C1C(=O)c2c(oc(=O)c3ccccc23)-c2ccccc21

Reply |
1: > 100 µM; 2: > 100 µM; 3: > 25 µM

Ask | Param readout= TGI; system= A549 NSCLC; entry= CCOC(=O)C(N)C[S][Sn]([CH3])([CH3])[Cl] (stereo not given) ; returns value.
Reply | > 100 µM
